Reported IC50 by item:
Test system: B16
ASSAY_REMARKS: Antiproliferative activity against mouse B16 cells after 48 hrs by MTT assay
Type: functional, cell-based
MEASUREMENT_CONTEXT: B16, 48 h
Provide only the numeric value, understood in µM.

These recorded examples may help you get a feel for the data.
compound="CC1(C)C(=O)CC[C@]2(C)[C@@H]1C[C@@H](O)[C@]13C(=O)C(CNc4ccccc4F)[C@H](CC[C@@H]21)[C@H]3O (some centres not stated)" quantity_unit=µM number=9.59
compound="CC1(C)C(=O)CC[C@]2(C)[C@@H]1C[C@@H](O)[C@]13C(=O)C(CNc4ccc(F)cc4)[C@H](CC[C@@H]21)[C@H]3O (some centres not stated)" quantity_unit=µM number=12.9

Entry Cc1cccc(NCC2C(=O)[C@@]34[C@H](O)C[C@@H]5C(C)(C)C(=O)CC[C@@]5(C)[C@@H]3CC[C@@H]2[C@H]4O)c1 (some centres not stated) has what IC50?
14.4

Entry O=c1[nH]cc(F)c(=O)[nH]1 [FLUOROURACIL] has what IC50?
17.9

Entry CC(=O)c1ccc(NCC2C(=O)[C@@]34[C@H](O)C[C@@H]5C(C)(C)C(=O)CC[C@@]5(C)[C@@H]3CC[C@@H]2[C@H]4O)cc1 (some centres not stated) has what IC50?
18.3

Entry Cc1ccccc1NCC1C(=O)[C@@]23[C@H](O)C[C@@H]4C(C)(C)C(=O)CC[C@@]4(C)[C@@H]2CC[C@@H]1[C@H]3O (some centres not stated) has what IC50?
19.2

Entry Cc1ccc(NCC2C(=O)[C@@]34[C@H](O)C[C@@H]5C(C)(C)C(=O)CC[C@@]5(C)[C@@H]3CC[C@@H]2[C@H]4O)cc1 (some centres not stated) has what IC50?
8.54
